# System: primary rat mixed cortical cells
# assay-notes: In vitro myelination assay (MBP positive myelin strands, fold myelin pixels above background)
# Format: cell-based
# measurement-context: Rattus norvegicus, 10.0 μM compound, relative to baseline of no added compound; read-out: Fold myelin pixels above background, 10.0 μM
recorded-endpoint: fold induction at 10 µM

Consider the following illustrative entries.
COC(=O)N1CCCC(c2cc(C)cc(Nc3ncn(-c4ccccc4)n3)c2)C1 (centres unmarked) [Compound 143]	1000 to 10000
CCc1cc(Nc2ncn(-c3ccccc3)n2)cc(N2CCN(C3COC3)CC2)c1 [Compound 330]	≤ 1
Fc1cc(-n2cnc(Nc3cc(C(F)F)cc(N4CCN(C5CC5)CC4)c3)n2)ccn1 [Compound 153]	10 to 100
Cc1ccc(-n2cnc(Nc3cc(C)cc(N4CCN(C5COC5)CC4)c3)n2)cc1 [Compound 70]	10 to 100
Fc1ccc(-n2cnc(Nc3cc(C4CC4)nc(N4CCOCC4)c3)n2)cc1F [Compound 88]	1000 to 10000
COCc1ccccc1-n1cnc(Nc2cc(C)cc(N3CCN(C4COC4)CC3)c2)n1 [Compound 233]	≤ 1
Fc1cc(F)cc(-n2cnc(Nc3cc(Cl)cc(N4CCN(C5COC5)CC4)c3)n2)c1 [Compound 5]	≤ 1

Now, please, on to the next compound.
Query string: # fold induction at 10 µM lookup, item CN1CCCN(c2cc(F)cc(Nc3ncn(-c4ccc(F)cc4F)n3)c2)CC1 [Compound 28]
Result string: ≤ 1

* * *

# Test system: primary rat mixed cortical cells
# assay-notes: In vitro myelination assay (MBP positive myelin strands, fold myelin pixels above background)
# Assay type: cell-based
# measurement-context: Rattus norvegicus, 10.0 μM compound; read-out: Fold myelin pixels above background relative to baseline of no added compound
# Description: In Vitro Myelination Assay Compounds were screened for their ability to induce myelination using a primary rat mixed cortical cell culture assay, which contains neurons, oligodendrocyte precursor cells, oligodendrocytes, astrocytes and microglia. […] The myelin strands were quantitated using a custom created myelin detection software program. […]
recorded-endpoint: fold induction at 10 µM

Query string: # fold induction at 10 µM lookup, item `Cc1cc(Nc2ncn(-c3cc(F)cc(F)c3)n2)cc(N2CCC(OCCN(C)C)CC2)c1`
Result string: ≤ 1

Query string: # fold induction at 10 µM lookup, item Cc1cc(Nc2ncn(-c3cc(F)cc(F)c3)n2)cc(N2CCC(N3CCCC(O)C3)CC2)c1 (stereo not shown)
Result string: ≤ 1

Query string: # fold induction at 10 µM lookup, item `Cc1cc(Nc2ncn(-c3cc(F)cc(NCCO)c3)n2)cc(N2CC(F)C2)c1`
Result string: ≤ 1

Query string: # fold induction at 10 µM lookup, item [2H]C1([2H])N(c2cc(C)cc(Nc3ncn(-c4cc(F)cc(F)c4)n3)c2)C([2H])([2H])C([2H])([2H])N(C2CCCOC2)C1([2H])[2H] (stereo not shown)
Result string: 1 to 10

Query string: # fold induction at 10 µM lookup, item `Cc1cc(NC(=O)NC2CCC2)cc(Nc2ncn(-c3ccccc3)n2)c1`
Result string: 10 to 100

* * *

Listing of entries alongside the reported fold induction at 1 µM.
# Tested on: primary rat mixed cortical cells
# assay-notes: In vitro myelination assay (MBP positive myelin strands, fold myelin pixels above background)
# Assay type: cell-based
# measurement-context: Rattus norvegicus, 1.0 μM compound, relative to baseline of no added compound; read-out: Fold myelin pixels above background

Consider the following illustrative entries.
COc1c(F)cc(-n2cnc(Nc3cc(C)cc(N4CCN(C5COC5)CC4)c3)n2)cc1F	10 to 100
CCc1cc(Nc2ncn(-c3cccc(SC)c3)n2)cc(N2CCN(C3COC3)CC2)c1	1 to 10
Cc1cc(Nc2ncn(-c3cc(F)cc(F)c3)n2)nc(N2CCN(C(=O)OC(C)(C)C)CC2)c1	10 to 100

Now, please, on to the next compound.
Query string: # fold induction at 1 µM lookup, item `N#Cc1cc(Nc2ncn(-c3ccccc3)n2)cc(N2CCN(C3COC3)CC2)c1`
Result string: 1 to 10

* * *

# Test system: primary rat mixed cortical cells
# assay-notes: In vitro myelination assay (MBP positive myelin strands, fold myelin pixels above background)
# Assay type: cell-based
# measurement-context: Rattus norvegicus, 1.0 μM compound, relative to baseline of no added compound; read-out: Fold myelin pixels above background
Listing of entries alongside the reported fold induction at 1 µM.

Cc1cc(Nc2ncn(-c3cc(F)cc(F)c3)n2)cc(N2CC3(CCO3)C2)c1	100 to 1000
N#Cc1cc(N2CCN(C3COC3)CC2)cc(Nc2ncn(-c3cc(F)cc(F)c3)n2)n1	≤ 1
Cc1cc(Nc2ncn(-c3cccc(F)c3)n2)cc(N2CCN(C3COC3)CC2)c1	1000 to 10000
Cc1cc(Nc2ncn(-c3cc(F)cc(F)c3)n2)cc(N2CCN(CC(F)(F)F)CC2)c1	100 to 1000
Cc1cc(Nc2ncn(-c3cc(F)cc(F)c3)n2)nc(N2CC3(CCOC3)C2)c1	≤ 1
CCc1cc(Nc2ncn(-c3cccc(C#N)c3)n2)cc(N2CCN(C3COC3)CC2)c1	1 to 10
Cc1cc(Nc2ncn(-c3ccccc3)n2)cc(N2CCN(c3ccccc3F)CC2)c1	≤ 1

Now, please, on to the next compound.
Query string: Provide value of fold induction at 1 µM for this record tested with primary rat mixed cortical cells: `Cc1cc(Nc2ncn(-c3ccc(F)c(F)c3)n2)cc(OCCn2cccn2)c1`
Result string: 10 to 100

* * *

Listing of entries alongside the reported fold induction at 1 µM.
# Tested on: primary rat mixed cortical cells
# assay-notes: In vitro myelination assay (MBP positive myelin strands, fold myelin pixels above background)
# Type: cell-based
# measurement-context: Rattus norvegicus, 1.0 μM compound, relative to baseline of no added compound; read-out: Fold myelin pixels above background

Consider the following illustrative entries.
Cc1cc(Nc2ncn(-c3ccccc3)n2)cc(N2CCC(F)CC2)n1	100 to 1000
Cc1ccc(-n2cnc(Nc3cc(F)cc(N4CCN(C5COC5)CC4)c3)n2)cc1F	1 to 10
Cc1cc(Nc2ncn(-c3cccc(C(F)F)c3)n2)cc(N2CCC(N3CCOCC3)CC2)c1	10 to 100
Cc1cc(Nc2ncn(-c3cc(F)cc(F)c3)n2)nc(N2CCNCC2)c1	1 to 10
Cc1cc(Nc2ncn(-c3cccc(Cl)c3)n2)cc(N2CCN(C3COC3)CC2)c1	1000 to 10000

Query string: # fold induction at 1 µM lookup, item `Cc1cc(Nc2ncn(-c3cc(F)cc(F)c3)n2)cc(N2CCN(CCN3CCOCC3)CC2)c1`
Result string: 1 to 10

Query string: # fold induction at 1 µM lookup, item `Cc1cc(Nc2ncn(-c3cc(F)cc(F)c3)n2)nc(N2CC(C3COC3)C2)c1`
Result string: ≤ 1

Query string: # fold induction at 1 µM lookup, item `FC(F)c1cc(Nc2ncn(-c3cnccn3)n2)nc(N2CCN(C3COC3)CC2)c1`
Result string: 10 to 100

* * *

Listing of entries alongside the reported fold induction at 10 µM.
# System: primary rat mixed cortical cells
# assay-notes: In vitro myelination assay (MBP positive myelin strands, fold myelin pixels above background)
# Type: cell-based
# measurement-context: Rattus norvegicus, 10.0 μM compound, relative to baseline of no added compound; read-out: Fold myelin pixels above background, 10.0 μM

Consider the following illustrative entries.
CCOCC1CCCN1c1cc(F)cc(-n2cnc(Nc3cc(C)cc(N4CCN(C5COC5)CC4)c3)n2)c1 (stereo not drawn) [Compound 41]	≤ 1
Cc1cc(Nc2ncn(-c3cc(F)cc(F)c3)n2)cc(C2(O)CCN(C)C2)c1 (stereo not drawn) [Compound 242]	≤ 1
CCc1cc(Nc2ncn(-c3ccnc(SC)n3)n2)cc(N2CCN(C3COC3)CC2)c1 [Compound 132]	1 to 10

Query string: # fold induction at 10 µM lookup, item Cc1cc(Nc2ncn(-c3cc(F)cc(F)n3)n2)cc(N2CCN(C3COC3)CC2)c1 [Compound 329]
Result string: 10 to 100

Query string: # fold induction at 10 µM lookup, item Cc1cc(Nc2ncn(-c3cncc(C)n3)n2)cc(N2CCN(C3COC3)CC2)c1 [Compound 271]
Result string: ≤ 1

Query string: # fold induction at 10 µM lookup, item Cc1cc(Nc2ncn(-c3ccccc3)n2)cc(C2COC2)c1 [Compound 363]
Result string: 100 to 1000

Query string: # fold induction at 10 µM lookup, item FC(F)c1cc(Nc2ncn(-c3ccccc3)n2)cc(N2CCN(C3CC3)CC2)c1 [Compound 348]
Result string: 100 to 1000

Query string: # fold induction at 10 µM lookup, item COCC1CN(c2cc(C)cc(Nc3ncn(-c4cc(F)cc(F)c4)n3)c2)CCO1 (stereo not drawn) [Compound 325]
Result string: 10 to 100

Query string: # fold induction at 10 µM lookup, item Cc1cc(Nc2ncn(-c3cc(F)cc(F)c3)n2)cc(C2CCN(C)CC2)c1 [Compound 151]
Result string: ≤ 1

Query string: # fold induction at 10 µM lookup, item Cc1cc(Nc2ncn(-c3ccccn3)n2)cc(N2CCN(C)CC2)c1 [Compound 138]
Result string: 100 to 1000

Query string: # fold induction at 10 µM lookup, item Fc1cc(F)cc(-n2cnc(Nc3cc(C4CC4)nc(N4CC[C@H](F)C4)c3)n2)c1 [Compound 332]
Result string: 10 to 100

Origin of values: patent US10766869B2
